Biological target: human recombinant CYP1A2 (Homo sapiens, UniProt P05177)
Sequence (P05177 whole entry): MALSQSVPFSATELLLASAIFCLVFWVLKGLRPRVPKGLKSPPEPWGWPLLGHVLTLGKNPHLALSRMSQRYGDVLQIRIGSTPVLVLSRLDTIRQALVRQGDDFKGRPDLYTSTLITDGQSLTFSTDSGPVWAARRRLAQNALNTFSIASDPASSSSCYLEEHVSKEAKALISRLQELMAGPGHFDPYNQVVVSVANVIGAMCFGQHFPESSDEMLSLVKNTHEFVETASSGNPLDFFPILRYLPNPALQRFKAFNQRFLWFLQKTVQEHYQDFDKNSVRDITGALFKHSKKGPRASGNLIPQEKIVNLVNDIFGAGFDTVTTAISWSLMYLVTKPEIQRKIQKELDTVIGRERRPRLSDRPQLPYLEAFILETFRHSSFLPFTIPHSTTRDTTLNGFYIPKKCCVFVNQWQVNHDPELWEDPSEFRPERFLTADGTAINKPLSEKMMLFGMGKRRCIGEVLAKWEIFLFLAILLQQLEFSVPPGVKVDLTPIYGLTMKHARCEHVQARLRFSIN
Assay: Human recombinant CYP1A2 Supersome inhibition assay
pIC50: −log10 of the molar value.
assay.metric: pIC50

• O=S(=O)(O)C(F)(F)C(F)(F)C(F)(F)C(F)(F)C(F)(F)C(F)(F)F = 4.86

###

System: CYP1A2 activity in HepaRG cells
Assay: CYP1A2 enzyme activity in differentiated HepaRG monolayers
Type: cell-based, human
Conditions: HepaRG, 48 h, 1 nM PFAS alone
assay.metric: CYP1A2 activity (% of the solvent control) (%)

• OCCC(F)(F)C(F)(F)C(F)(F)C(F)(F)C(F)(F)C(F)(F)F [6:2 FTOH, 6:2 Fluorotelomer alcohol] = 168.4
• O=S(=O)(O)C(F)(F)C(F)(F)C(F)(F)C(F)(F)F [PFBS, Perfluorobutanesulfonic acid] = 205.4

###

Tested on: CYP1A2
Assay: CYP1A2 enzyme activity in differentiated HepaRG monolayers
Assay type: cell-based, human
Settings: human, differentiated HepaRG cell monolayers, probe luciferin-1A2 (6 µM)
assay.metric: activity at 48 h, 1 nM

* O=S(=O)(O)C(F)(F)C(F)(F)C(F)(F)C(F)(F)C(F)(F)C(F)(F)F [PFHxS] | 80.2%

###

Target: human recombinant CYP2E1 (Homo sapiens, UniProt P05181)
Sequence (P05181 whole entry): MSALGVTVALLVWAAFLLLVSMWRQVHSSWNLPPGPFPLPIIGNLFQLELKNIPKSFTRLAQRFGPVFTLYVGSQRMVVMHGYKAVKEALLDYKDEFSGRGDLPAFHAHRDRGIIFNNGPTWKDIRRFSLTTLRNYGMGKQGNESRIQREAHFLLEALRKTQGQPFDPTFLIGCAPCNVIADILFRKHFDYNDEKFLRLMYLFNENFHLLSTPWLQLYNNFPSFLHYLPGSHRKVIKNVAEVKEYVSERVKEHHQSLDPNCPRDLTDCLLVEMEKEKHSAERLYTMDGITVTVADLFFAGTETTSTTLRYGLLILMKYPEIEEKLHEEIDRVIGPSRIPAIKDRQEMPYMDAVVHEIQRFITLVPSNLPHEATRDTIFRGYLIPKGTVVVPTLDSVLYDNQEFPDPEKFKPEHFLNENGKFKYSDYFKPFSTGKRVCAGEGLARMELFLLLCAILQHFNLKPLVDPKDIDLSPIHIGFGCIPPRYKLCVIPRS
Experiment: Human recombinant CYP2E1 Supersome inhibition assay
Assay type: biochemical
assay.metric: IC50

- O=C(O)C(F)(F)C(F)(F)C(F)(F)C(F)(F)C(F)(F)C(F)(F)C(F)(F)F [PFOA, Perfluorooctanoic acid]: > 100 µM
- O=S(=O)(O)C(F)(F)C(F)(F)C(F)(F)C(F)(F)C(F)(F)C(F)(F)F [PFHxS]: > 100 µM

###

Test system: CYP1A2 activity in HepaRG cells
Test: CYP1A2 enzyme activity in differentiated HepaRG monolayers
Type: cell-based, human
Details: HepaRG, 48 h, 1 µM PFAS alone
The entries below are paired with their reported CYP1A2 activity (% of the solvent control).
assay.metric: CYP1A2 activity (% of the solvent control) (%)

- OCCC(F)(F)C(F)(F)C(F)(F)C(F)(F)C(F)(F)C(F)(F)F: 148.4
- O=S(=O)(O)C(F)(F)C(F)(F)C(F)(F)C(F)(F)F: 204.4

###

Test system: CYP1A2 activity in HepaRG cells
Assay: CYP1A2 enzyme activity in differentiated HepaRG monolayers
Type: cell-based, human
Conditions: HepaRG, 48 h, 1 µM PFAS in binary mixture with 10 µM BaP
assay.metric: CYP1A2 activity (% of the solvent control)

- O=S(=O)(O)C(F)(F)C(F)(F)C(F)(F)C(F)(F)F: 128.5%
- OCCC(F)(F)C(F)(F)C(F)(F)C(F)(F)C(F)(F)C(F)(F)F: lower

###

Test system: CYP1A2 activity in HepaRG cells
Assay: CYP1A2 enzyme activity in differentiated HepaRG monolayers
Format: cell-based, human
Settings: HepaRG, 48 h, 1 nM PFAS in binary mixture with 10 µM BaP
assay.metric: CYP1A2 activity (% of the solvent control)

* OCCC(F)(F)C(F)(F)C(F)(F)C(F)(F)C(F)(F)C(F)(F)F [6:2 FTOH, 6:2 Fluorotelomer alcohol] | lower
* O=S(=O)(O)C(F)(F)C(F)(F)C(F)(F)C(F)(F)F [PFBS, Perfluorobutanesulfonic acid] | 130.9%
